- System: shunt pathway
- procedure-details: Test, Code 036 (C-Shunt inhibitor): lysis of human erythrocytes via the shunt pathway activated by cobra venom factor
- Format: biochemical
- assay-context: serial two-fold dilution assay; higher well number indicates higher activity
measured-quantity: Shunt Inhibition 036 Wells

Here is how some molecules turned out for Shunt Inhibition 036 Wells.
{"columns": ["record-smiles", "readout-value"],
 "data": [
  ["O=C(O)c1cc(NS(=O)(=O)c2ccc3c(S(=O)(=O)Nc4cc(C(=O)O)cc(C(=O)O)c4)cc(S(=O)(=O)Nc4cc(C(=O)O)cc(C(=O)O)c4)cc3c2)cc(C(=O)O)c1", "+2 wells"],
  ["O=C([O-])c1ccc(NS(=O)(=O)c2ccc3c(S(=O)(=O)Nc4ccc(C(=O)[O-])cc4)cc(S(=O)(=O)Nc4ccc(C(=O)[O-])cc4)cc3c2)cc1.[Na+].[Na+].[Na+]", "N"],
  ["O=C(O)c1cc(NS(=O)(=O)c2ccc3c(S(=O)(=O)Nc4ccc(O)c(C(=O)O)c4)cc(S(=O)(=O)Nc4ccc(O)c(C(=O)O)c4)cc3c2)ccc1O", "N"],
  ["O=C(O)c1cc(NS(=O)(=O)c2ccc3c(S(=O)(=O)Nc4cc(C(=O)O)c(O)c(C(=O)O)c4)cc(S(=O)(=O)Nc4cc(C(=O)O)c(O)c(C(=O)O)c4)cc3c2)cc(C(=O)O)c1O", "+4 wells"],
  ["CN(c1cc(C(=O)O)cc(C(=O)O)c1)S(=O)(=O)c1ccc2c(S(=O)(=O)N(C)c3cc(C(=O)O)cc(C(=O)O)c3)cc(S(=O)(=O)N(C)c3cc(C(=O)O)cc(C(=O)O)c3)cc2c1", "N"]
]}

Would you kindly look at the next entry?
Ask | What value of Shunt Inhibition 036 Wells has been recorded for this entry: O=C([O-])c1cccc(NS(=O)(=O)c2ccc3c(S(=O)(=O)Nc4cccc(C(=O)[O-])c4)cc(S(=O)(=O)Nc4cccc(C(=O)[O-])c4)cc3c2)c1.[Na+].[Na+].[Na+]
Reply | N
